- Test system: Saccharomyces cerevisiae
- protocol.details: protein stability index of tFT-peptide fusion (C-terminal peptide) (PSI (0-1 scale)); higher = more stable (slower turnover);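 note: PSI is a weighted mean of sequencing reads over stability bins, variants kept only with over 10 reads, mCherry proximal and sfGFP distal, peptide attached via GGGS linker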
- particulars: genetic background: wild type; temperature: 30 C
Think of 0.7 as a floor: if protein stability index stands on it or above, it is True; beneath it, False.

DLSLQSLRSPIT	False
LPVVGLVPPARS	False
AWGGGEWGGCGR	True
GGGAGERMRDGR	False
VRQRADSCEAHA	False
KKKKRKIPKKKK	False
SELVARGGGGGW	True
FKCWAGVRCGMV	False
VFLRGSVLGLCI	False
LLAREILVIVAV	False
RPFYPLVRPRTR	True
YDLLLYGGATSP	True

====

- System: Saccharomyces cerevisiae
- protocol.details: protein stability index of tFT-peptide fusion (C-terminal peptide) (PSI (0-1 scale)); higher = more stable (slower turnover)
- particulars: genetic background: wild type; temperature: 30 C
measured.property: protein stability index

RHVFLRIKVLNL	0.397
GYTVYARRLIMC	0.0799
FPLPPPGSPPPL	0.677
RYVFAFRRNYFC	0.174
RVCCLSFFFVFL	0.391
RPRVAGLMTLVS	0.459
VRRGAVWCCLCG	0.405
VYFASCVVLLMV	0.174
LVHLVLYVAVFC	0.309
FRHKLSLGLVIV	0.377

====

- Test system: Saccharomyces cerevisiae
- protocol.details: protein stability index of tFT-peptide fusion (C-terminal peptide) (PSI (0-1 scale)); higher = more stable (slower turnover)
- particulars: genetic background: doa10 deletion; temperature: 30 C
Property: protein stability index; scope: individual sequences
measured.property: protein stability index

IRFFLIVFCFLR	0.273
WSLRFRRMMLRC	0.137
GLGWLLFVVERV	0.34
VGLLFGWVWSLW	0.556
FSPSPVFVTCRV	0.182
WLISLLVQPVFL	0.233
FLPPVHRCFSIF	0.172
IKERRKVSMKVY	0.321
RISYKTKINELI	0.262
SPGFVLLAVLVI	0.194

====

- Test system: Saccharomyces cerevisiae
- protocol.details: protein stability index of tFT-peptide fusion (C-terminal peptide) (PSI (0-1 scale)); higher = more stable (slower turnover)
- particulars: genetic background: cdc34-1; temperature: 37 C
Think of 0.5 as a floor: if protein stability index stands on it or above, it is Satisfied; beneath it, Not satisfied.

GRVFSSFFLYIS	Not satisfied
APPPVAPAPGSA	Satisfied
FLVCTFCRWVWL	Not satisfied
IRFFLIVFCFLR	Not satisfied
RFIYYCVDVFFS	Not satisfied
EFFTLYDLVRFI	Satisfied
YLCCFSVAFFLG	Not satisfied
APPFPSLSSFAP	Satisfied
LLGDFAVLTCVF	Not satisfied
MALAVRVVVCGA	Not satisfied
DVRLVLCEMIKG	Satisfied
CTYSLSVLFVFF	Not satisfied
PFAGRLWVTSSF	Satisfied
IYITFQIYVSDM	Not satisfied
VLFSVWFFLVLV	Not satisfied
KKKTKYSKDKLC	Satisfied
AGLLVLISWRLF	Not satisfied
IVFLPVLLWFSV	Not satisfied
GCVLVFFLRLDL	Not satisfied
NTYKICVVSVTS	Not satisfied
GFISKLIIKLAA	Satisfied
VVFLWRCRLLLG	Not satisfied
SWCLLVWIGGVF	Not satisfied
CVLSWSLFVVVW	Not satisfied
AASRVIYLLNLF	Satisfied
RCSLFAKQVVSL	Not satisfied
YCCDYFMFVLVV	Not satisfied
VVLVGVAVCRLG	Not satisfied
SPGGALVFFVLV	Satisfied
PRSLHVLSRFLP	Satisfied
YYLHFRFFIYVF	Not satisfied
RIVLRPPFNSVA	Satisfied
VAFFSVFYWLEC	Not satisfied
TNHRVRHWILRV	Satisfied
RHQTDIVTATQK	Satisfied
VFYWGGVLCGWG	Not satisfied
PPPLPPPSPSRP	Satisfied
GIGVVWLDVFKT	Not satisfied
LLCSPPPLTVPA	Not satisfied
PTFSPSLPPPRS	Satisfied
CHSICLVILEFI	Not satisfied
LTIYPLTYCFVS	Satisfied
KRSPPPATPSSG	Satisfied
GFALGSFMLVLR	Not satisfied
FSFCFCFPLSSL	Satisfied
VRRGAVWCCLCG	Satisfied
PPSPPPPPPSPF	Satisfied
VPPLPPPGPPTF	Satisfied
RGSLLRWFLAAQ	Satisfied
FLPGEAVFVYCR	Satisfied
FYACRLWLVSVR	Not satisfied
WFLVLLFFWFLL	Satisfied
CIFLLMAILSLA	Not satisfied
CVFFCVLVCFLS	Not satisfied
FLLELRFTCSYS	Not satisfied
FLFFMGVGVVLY	Not satisfied
CSPSCNIVRLVS	Satisfied
SLPCCKVVFCVI	Satisfied
LAVRSGFPFGLF	Satisfied
GSLGHCWFLFGV	Satisfied
FFFCFFIFCFSL	Not satisfied
VIVIQGFVFVLG	Not satisfied
FFVSFFFFLWLV	Not satisfied
QRAVGLANFTIK	Satisfied
CPYSNAFALCVF	Not satisfied
PGHICVPVLGTA	Not satisfied
GGVSPRSSMDLL	Satisfied
SRFFSSSFYRLC	Satisfied
VYLVVLYLRYFA	Not satisfied
FCMLCVVFLGSL	Not satisfied
CCGWSGCVSGVL	Satisfied
LVHLVLYVAVFC	Not satisfied
YAFLWCVFYLSF	Not satisfied
MDLVSEYKIKVN	Satisfied
GRGRGGRWGRLC	Satisfied
AALFNYVVCFCA	Not satisfied
AVLSFVLVRSVV	Satisfied
LCLLHCSICISF	Not satisfied

====

Property: protein stability index; scope: individual sequences
- Tested on: Saccharomyces cerevisiae
- protocol.details: protein stability index of tFT-peptide fusion (C-terminal peptide) (PSI (0-1 scale)); higher = more stable (slower turnover)
- particulars: genetic background: wild type; temperature: 30 C
measured.property: protein stability index

NTHPPPLPTTKH	0.739
LAVRSGFPFGLF	0.249
RDKKMKHIKDKR	0.79
PPHPSTPIPPPR	0.672
GGCGAKWLSGGG	0.64
WGVGWSGRVGGS	0.647
FEIVARTYNVDT	0.666
VSRWVVCRGGLW	0.65
GRVYLLGLYMSF	0.373
KNTVRKCNGRMH	0.57
APPQFPLTPPPP	0.647
QTPPPRLPPRPP	0.669
LCLLIHFWISHL	0.244
EKWMRYLARCDI	0.688
YCCDYFMFVLVV	0.255
LLGGFAAFWRIL	0.226
RTTAPPIPLPSP	0.729
SPIHSLNYASSC	0.722
LSSIIRFLIFCL	0.404
ARPDTSPPGTSL	0.664
KTQKKKKKNKNF	0.51
VGTSVTSSFRGK	0.591
AVLPFFPCFSAF	0.69
RPGAFDNGLTLP	0.682
VINKHYINKCQG	0.638
KQKIKKRIKKTI	0.696
QSILGLVERVIK	0.643
GSDHIRQRNRME	0.716
PSPSSPLPPPPP	0.794
APEWGGGDEWWG	0.767
PPPAPQTATPHR	0.714
GRGLVDLLCGWV	0.683
AFDPGLPPRRSD	0.755
SSSPSPRPPRPP	0.679
ALPLLPPHSLPP	0.617
WGRCGSVGRGGA	0.749
LCHLSSFLAALS	0.618
LVLGRCWMSVPR	0.535
GRFGVGVVFRLA	0.456
PPPPPLPTPPPS	0.653
AKKKKKKIKTKH	0.8
DNKGKDEESERR	0.709
GNEKSSRLRSTT	0.644
SHRLPPPPPPPS	0.758
CRRSCPRLTVTR	0.746
WLFDRLPFNAEN	0.715
EWFFCLGLFRFH	0.369
VWLSRLVFLSPL	0.602
FGVVRVSIPVGV	0.368
WSGERCFLGFYR	0.771
LFPSSGTRLTPS	0.667
KKKKKKKKKKTR	0.641
GVCLGCWCWWVG	0.604
TQARDTIPGAKV	0.678
SGGAEGVRAGAA	0.715
SREYKRRTPSSK	0.718
RKKREKKGRRGK	0.668
PPLSGNLPCFRF	0.713
PPSLFRFPPPPR	0.709
LRFRTVTRSGLR	0.626
PRLPRRTTTIHG	0.71
KSVVRLPHLPLE	0.695
TRECGRLRQAET	0.723
WYSSSRDLSVSG	0.731
LCGYAMSFRPLG	0.73
IACGAGGRGFSC	0.721
YPGVSRCGTRWV	0.643
RTKVSENLNEKK	0.681
FALPSASHFPVP	0.729
KIVKNQKKKKQR	0.732
PAYACLCGFGIA	0.628
NKIDAGTPEKHR	0.626
NPQRGLNAQLFG	0.656
GPWVIFSHLLLT	0.404
GGELVKGWGSRV	0.678
VRRGGGGGGYGI	0.72
GYGPSFALRPDS	0.651
PLLRPRLRPFPR	0.704
HPPLPPPPIVPS	0.696
GLAGWCGGGWAL	0.705
LFRPSPPRPLPP	0.651
GGMWGVGRGSVG	0.657
